Biological target: T1, cynomolgus monkey ST2 on HEK293T-Cyno-ST2-NFκB-Luciferase cells (cynomolgus monkey, UniProt Q01638 19-556 (human entry))
T1 chain: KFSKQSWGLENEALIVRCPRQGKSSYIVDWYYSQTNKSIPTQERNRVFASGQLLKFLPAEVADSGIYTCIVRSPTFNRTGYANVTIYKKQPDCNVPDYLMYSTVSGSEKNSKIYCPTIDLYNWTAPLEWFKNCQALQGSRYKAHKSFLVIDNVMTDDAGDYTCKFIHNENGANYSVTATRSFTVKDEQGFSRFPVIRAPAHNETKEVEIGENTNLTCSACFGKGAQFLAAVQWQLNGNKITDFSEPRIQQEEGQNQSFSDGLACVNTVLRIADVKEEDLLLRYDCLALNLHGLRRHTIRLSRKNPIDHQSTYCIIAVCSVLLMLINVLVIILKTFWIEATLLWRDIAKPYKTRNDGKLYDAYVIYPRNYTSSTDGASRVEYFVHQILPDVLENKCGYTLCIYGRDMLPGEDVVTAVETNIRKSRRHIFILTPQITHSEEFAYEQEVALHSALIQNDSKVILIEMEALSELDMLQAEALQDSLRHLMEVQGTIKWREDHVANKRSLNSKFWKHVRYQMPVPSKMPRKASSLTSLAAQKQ
Test: flow cytometry on HEK293T-Cyno-ST2-NFκB-Luciferase cells
observed property: pEC50
Friendly reminder that pEC50 comes from taking -log10 of the concentration in mol/L.

Below, 2 binders whose answers are already recorded.
[
  {
    "binder": "Chimeric 7D1 (antibody, human IgG2, kappa, V domains shown, also called xi7D1) VH: QVQLQQSGAELVRPGASVTLSCKASGYTFTDYEMHWVKQTPVHGLDWIGTIDPETGDTAYNQKFKGRATLTADKSSSTAYMELSSLTSEDSAVYYCTRYSYTNSPYGMDYWGQGTSVTVSS VL: DVVMTQTPKFLLVSAGDRVTITCKASQSVSNDVAWYQQKPGQSPKLLIYYASNRYTGVPDRFTGSGYGTDFTFTINTVQAEDLAVYFCQQDYSSPYTFGGGTKLEIKR",
    "pEC50": 9.40
  },
  {
    "binder": "Chimeric 3C6 (antibody, human IgG2, kappa, V domains shown, also called xi3C6) VH: QVQLQQSGAEVVRPGASVTLSCKASDYTITDYEMHWVKQTPVHGLEWIGAIDPETGDTAYSQNFKGKATLTADESSSTAYMELSSLTSEDSAVYYCSRSATDYYFASWGQGTTLTVSS VL: DIVMTQAAISNPVTLGTSASMSCRSSKSLLHSNGITYLYWYLQKPGHSPQLLIYQMSNLASGVPDRFSSSGSGTDFTLKISRVEAEDVGVYYCAQNLELPFTFGSGTKLEIKR",
    "pEC50": 6.98
  }
]

Field pEC50 (entry Chimeric 31C8 (antibody, human IgG2, kappa, V domains shown, also called xi31C8) VH: QVQLQQSGPELVRPGASVTLSCKASGYIFIDSEMHWVKQTPVHGLEWIGAIDPETGDTVYNQKFKGKATLTADKSSSTASMELSSLTSEDSAVYYCTGSTTDYYFAYWGQGTTLTVSS VL: DIVMTQAAFSNPVTLGTSASISCRSSKSLLHSNGIIYLYWYLQKPGQSPQLLIYQMSNLASGVPDRFSSSGSGTDFTLRISRVEAEDVGVYYCAQNLELPFTFGSGTKLEIKR ) reads 9.08

Field pEC50 (entry Chimeric 17E2 (antibody, human IgG2, kappa, V domains shown, also called xi17E2) VH: QVQLQQSGAELVRPGASVTLSCKASGYTFTDYEMHWVKQTPVLGLEWIGAIDPETGDTAYNQKFKGKATLTADKSSSTAYMELSSLASEDSAVYYCIRVDSNYDYFDYWGQDTTLTVSS VL: DIVLTQSPPILSASPGEKVTMTCRASSSVSYMHWYQQKPGSSPKPWIYDTSNLASGVPARFSGSGSGTSYSLTISRVEAEDAATYYCQQWSSNPLTFGAGTKLELKR ) reads 9.31

Values from patent US20230272086A1
